The reported numbers originate from PubChem BioAssay (NCI).

// growth lookup, one value per entry
System: HS 578T breast
Assay: NCI-60 one-dose screen, 48 h (100 = growth as untreated, 0 = no growth, -100 = all killed)
Details: 10 µM
Experimental: Growth inhibition of the HS 578T human tumor cell line is measured as a screen for anti-cancer activity. Cells are grown in 96 well plates and exposed to the test compound for 48 hours. Compounds are tested at a single concentration, which is 10^-5 M for most compounds. The reported endpoint is percent growth (GI% or GIPRCNT), where numbers from 0 - 100% represent growth inhibition, and numbers from -100% - 0 represent cell death. For example, a value of 40 represents 60% growth inhibition. […]
About 83,000 compounds went through this panel and 20% of them were active in at least one assay; those are over-represented in the sample as a whole. The source made the active and inactive calls. Rule for the calls: active = growth percent below 10; inactive = the rest.

COMPOUND: COc1ccc2[nH]cc(C(c3ccc(Cl)cc3)N3CCCC3)c2c1 (stereo not given)
TARGET UNDER TEST: HS 578T breast
growth: 86.3% (inactive)
//
COMPOUND: COc1ccc(C2CC(c3cccc(Nc4ccnc5cc(Cl)ccc45)c3)=NN2c2ccc(Cl)cc2)cc1 (stereo not given)
TARGET UNDER TEST: HS 578T breast
growth: 90.5% (inactive)
//
COMPOUND: Cn1nc(C(F)(F)F)cc1-c1c[nH]c(OCc2ccc(Cl)cc2)c(-c2ccc(Cl)c(C(F)(F)F)c2)c1=O
TARGET UNDER TEST: HS 578T breast
growth: -1.78% (active)
//
COMPOUND: COc1ccc(C2C=C(c3ccc(Cl)cc3)N=C3SC=CN32)cc1 (stereo not given)
TARGET UNDER TEST: HS 578T breast
growth: 93.1% (inactive)
//
COMPOUND: O=C(Nc1ccc2[nH]c3ccccc3c2c1)c1ccccc1Cl
TARGET UNDER TEST: HS 578T breast
growth: 70.6% (inactive)
//
COMPOUND: C=CCn1c(SCC(=O)Nc2ccc(C(=O)/C=C/c3ccccc3)cc2)nnc1-c1ccc(OC)c(OC)c1
TARGET UNDER TEST: HS 578T breast
growth: 96.4% (inactive)
//
COMPOUND: CCCNC(=S)N/N=C(\C)c1ccccn1
TARGET UNDER TEST: HS 578T breast
growth: 32.9% (inactive)
//
COMPOUND: O=C(NCCNC(=O)c1cc(S(=O)(=O)NCCc2ccccc2)c(O)c(O)c1O)c1cc(S(=O)(=O)NCCc2ccccc2)c(O)c(O)c1O
TARGET UNDER TEST: HS 578T breast
growth: 52.2% (inactive)
//
COMPOUND: CCCCCCCCCCCCCC(=S)NCCCC[C@H](NC(=O)OCc1ccccc1)C(=O)Nc1ccccc1
TARGET UNDER TEST: HS 578T breast
growth: 61.1% (inactive)
//
COMPOUND: Cc1cc(Cl)c2ccc(N(C)C)cc2n1
TARGET UNDER TEST: HS 578T breast
growth: 96.9% (inactive)
